The reported measurements were obtained from the supplement of paper PMC12338614.

B1: library; numbered along this chain (parent)
chain: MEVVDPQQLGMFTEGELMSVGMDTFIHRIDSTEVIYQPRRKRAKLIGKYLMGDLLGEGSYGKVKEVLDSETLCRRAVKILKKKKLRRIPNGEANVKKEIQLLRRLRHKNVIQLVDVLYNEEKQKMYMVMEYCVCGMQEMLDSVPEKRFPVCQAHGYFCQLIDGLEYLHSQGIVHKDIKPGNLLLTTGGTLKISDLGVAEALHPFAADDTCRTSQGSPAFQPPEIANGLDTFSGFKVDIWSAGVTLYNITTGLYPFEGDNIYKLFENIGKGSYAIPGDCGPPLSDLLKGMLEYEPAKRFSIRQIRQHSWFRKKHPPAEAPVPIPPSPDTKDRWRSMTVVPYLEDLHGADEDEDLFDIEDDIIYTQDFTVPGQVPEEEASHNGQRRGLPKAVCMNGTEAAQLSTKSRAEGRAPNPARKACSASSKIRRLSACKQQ

- Variants of: B1
- Assay overview: STK11 functional score (HeLa growth suppression), rescaled enrichment; synonymous median = 1, nonsense median = 0 (normalised score)
- Conditions: with HeLa; variant type: missense
Listing of recorded STK11 functional score by entry.
Quantity kind: STK11 functional score

{"columns": ["Variant notation", "Quantity kind", "Observed result"],
 "data": [
  ["R426F", "STK11 functional score", 1.3],
  ["R384V", "STK11 functional score", 1.22],
  ["F255A", "STK11 functional score", 1.31],
  ["T244L", "STK11 functional score", 1.02],
  ["R383A", "STK11 functional score", 1.44],
  ["T209Q", "STK11 functional score", 1.5],
  ["C418G", "STK11 functional score", 1.61],
  ["H313D", "STK11 functional score", 1.17],
  ["V390F", "STK11 functional score", 1.18],
  ["N380V", "STK11 functional score", 1.12],
  ["L252S", "STK11 functional score", 1.5],
  ["R331W", "STK11 functional score", 1.49],
  ["G58P", "STK11 functional score", 0.174],
  ["N259F", "STK11 functional score", 1.25],
  ["C158S", "STK11 functional score", 0.627],
  ["N380H", "STK11 functional score", 1.48],
  ["E317H", "STK11 functional score", 1.25]
]}
